Reference for the values: paper PMC6567057

- Test summary: In vivo pharmacokinetic study in rats
- Parameters: species or system male Sprague–Dawley rats
- Test context: male, Sprague-Dawley, plasma; rat, PO 2 mg/kg; read-out: MRT0-∞
Reported metric: MRT inf (h)
Use h as the unit, but write only the number.

Input line: Bench note: what MRT inf did COc1ccc(CNc2nc(N3CCC[C@H]3CO)ncc2C(=O)NCc2ccccn2)cc1Cl [NHPPC] show?
Output line: 7.8

* * *

- Target or system: CYP1A2 (Homo sapiens)
- Sequence (P05177 whole entry): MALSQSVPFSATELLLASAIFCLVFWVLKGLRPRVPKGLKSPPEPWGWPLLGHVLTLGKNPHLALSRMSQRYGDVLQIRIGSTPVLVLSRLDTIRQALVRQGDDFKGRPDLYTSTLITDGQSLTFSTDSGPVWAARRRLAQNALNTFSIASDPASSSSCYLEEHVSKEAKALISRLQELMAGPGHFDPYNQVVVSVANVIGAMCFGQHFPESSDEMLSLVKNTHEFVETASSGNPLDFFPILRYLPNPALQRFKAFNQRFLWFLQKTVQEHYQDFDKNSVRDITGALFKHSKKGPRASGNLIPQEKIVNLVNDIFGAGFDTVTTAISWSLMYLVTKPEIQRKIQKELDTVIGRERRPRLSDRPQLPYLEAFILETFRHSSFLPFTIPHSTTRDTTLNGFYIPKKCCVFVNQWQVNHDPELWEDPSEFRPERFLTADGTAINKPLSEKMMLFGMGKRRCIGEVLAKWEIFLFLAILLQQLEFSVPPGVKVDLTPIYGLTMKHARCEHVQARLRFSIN
pIC50: −log10 of the molar value.
Reported metric: pIC50

Input line: Which pIC50 is reported for this compound? COc1ccc(CNc2nc(N3CCC[C@H]3CO)ncc2C(=O)NCc2ccccn2)cc1Cl
Output line: < 4.00
